Data credit: patent US8481494B2

Recorded solubility values for a group of compounds are listed next.
*1 amine or outer side, *2 acyl side, *3 side chain or, on linkers, in order; H or OH if unused. Where a SMILES comes first, the peptide text is derived from it. [ ]: non-standard residue; d: D form. The star is where a group is joined. X1 = O=C(c1cc([N+](=O)[O-])n[nH]1)*; X2 = O=C(c1cc(N[*:1])n[nH]1)[*:2]; AEEEA = NCCOCCOCCOCC(=O)O

[
  {
    "compound": "CC(C)C[C@H](NC(=O)[C@H](CCCCN)NC(=O)COCCOCCOCCNC(=O)c1cc(NC(=O)c2cc(NC(=O)c3cc([N+](=O)[O-])n[nH]3)n[nH]2)n[nH]1)C(=O)N[C@H](C(=O)N[C@@H](Cc1ccccc1)C(=O)N[C@@H](Cc1ccccc1)C(=O)O)C(C)C [Trimer-TEG-KLVFF-OH] (X1-[X2][X2][AEEEA]KLVFF-OH)",
    "result": "0.2 to 4.95 mM"
  }
]

Next compound, please.
What does the data say about its solubility? Entry: NCCCC[C@H](NC(=O)c1cc(NC(=O)c2cc(NC(=O)c3cc([N+](=O)[O-])n[nH]3)n[nH]2)n[nH]1)C(=O)N[C@@H](CCCCN)C(=O)N[C@@H](CCCCN)C(=O)N[C@@H](CCCCN)C(=O)N[C@@H](CCCCN)C(=O)NCC(=O)O [Trimer-KKKKKG-OH] (X1-[X2][X2]KKKKKG-OH)
> 4.95 mM

###

experiment: Solubility of the unprotected aminopyrazole trimers (stock solutions); settings: water (class a) or DMSO (class b)
measurement label: solubility

Some compounds with recorded solubility:
[
  {
    "compound": "NCCCC[C@H](NC(=O)c1cc(NC(=O)c2cc(NC(=O)c3cc([N+](=O)[O-])n[nH]3)n[nH]2)n[nH]1)C(=O)NCCCOCCOCCOCCCNC(=O)[C@H](CCCCN)NC(=O)c1cc(NC(=O)c2cc(NC(=O)c3cc([N+](=O)[O-])n[nH]3)n[nH]2)n[nH]1",
    "solubility": "> 4.95 mM"
  },
  {
    "compound": "NCCNC(=O)c1cc(NC(=O)c2cc(NC(=O)c3cc([N+](=O)[O-])n[nH]3)n[nH]2)n[nH]1",
    "solubility": "0.2 to 4.95 mM"
  },
  {
    "compound": "CC(NC(=O)C(NC(=O)c1cc(NC(=O)c2cc(NC(=O)c3cc([N+](=O)[O-])n[nH]3)n[nH]2)n[nH]1)C1CCCCC1)C1CCCCC1 (stereo not drawn)",
    "solubility": "0.2 to 4.95 mM"
  }
]

What does the data say about its solubility? Entry: CC(NC(=O)c1cc(NC(=O)c2cc(NC(=O)c3cc([N+](=O)[O-])n[nH]3)n[nH]2)n[nH]1)C1CCCCC1 (stereo not drawn)
0.2 to 4.95 mM

What does the data say about its solubility? Entry: O=C(O)c1cc(NC(=O)c2cc(NC(=O)c3cc([N+](=O)[O-])n[nH]3)n[nH]2)n[nH]1
0.2 to 4.95 mM

What does the data say about its solubility? Entry: CC(NC(=O)COCCOCCOCCNC(=O)c1cc(NC(=O)c2cc(NC(=O)c3cc([N+](=O)[O-])n[nH]3)n[nH]2)n[nH]1)C1CCCCC1 (stereo not drawn)
0.2 to 4.95 mM
